# target: T1, monovalent hVISTA-ECD (human VISTA extracellular domain with His tail) (human, UniProt Q9H7M9 33-193)
# T1 construct: analyte flowed over captured antibody; also called huVISTA-His
# T1 sequence (Q9H7M9 other isoform, or with tags, fused parts or gaps limits assumed): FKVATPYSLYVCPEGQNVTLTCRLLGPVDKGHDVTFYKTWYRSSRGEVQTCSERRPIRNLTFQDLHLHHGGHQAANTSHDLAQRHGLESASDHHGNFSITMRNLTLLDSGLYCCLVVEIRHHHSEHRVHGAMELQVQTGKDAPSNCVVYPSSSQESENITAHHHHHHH
# procedure.text: SPR
// values below are reported KD ratio (pH 7.4/pH 6.0)
quantity: KD ratio (pH 7.4/pH 6.0)

| binder | quantity | meas.value |
| --- | --- | --- |
| P1-064500 (41F11_Vk_Q90DA64G) (antibody, V domains shown, also called P1-064500-1) VH: QVQLVESGGGLVKPGGSLRLSCAASGFTFSDYYMSWIRQAPGKGLEWVSYISNSGSPIYYADSVKGRFTISRDNAKNSLYLQMNSLRAEDTAVYYCARDLPGWYFDLWGRGTLVTVSS VL: EIVLTQSPATLSLSPGERATLSCRASQSVSSYLAWYQQKPGQAPRLLIYDASNRATGIPARFSGSGSGTDFTLTISSLEPEDFAVYYCQDRNNWPRTFGQGTKVEIK | KD ratio (pH 7.4/pH 6.0) | 0.48 |
| P1-064494 (41F11_Vk_A25EA64G) (antibody, V domains shown, also called P1-064494-1) VH: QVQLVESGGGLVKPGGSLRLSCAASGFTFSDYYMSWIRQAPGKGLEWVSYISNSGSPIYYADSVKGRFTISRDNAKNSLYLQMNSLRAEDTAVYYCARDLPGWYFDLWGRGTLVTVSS VL: EIVLTQSPATLSLSPGERATLSCRESQSVSSYLAWYQQKPGQAPRLLIYDASNRATGIPARFSGSGSGTDFTLTISSLEPEDFAVYYCQQRNNWPRTFGQGTKVEIK | KD ratio (pH 7.4/pH 6.0) | 0.29 |
| P1-064526 (41F11_VH_D31E/Y50W/S55E/A60H/Y100E) (antibody, V domains shown, Kabat positions; also called P1-064526-1) VH: QVQLVESGGGLVKPGGSLRLSCAASGFTFSEYYMSWIRQAPGKGLEWVSWISNSGEPIYYHDSVKGRFTISRDNAKNSLYLQMNSLRAEDTAVYYCARDLPGWEFDLWGRGTLVTVSS VL: EIVLTQSPATLSLSPGERATLSCRASQSVSSYLAWYQQKPGQAPRLLIYDASNRATGIPARFSASGSGTDFTLTISSLEPEDFAVYYCQQRNNWPRTFGQGTKVEIK | KD ratio (pH 7.4/pH 6.0) | 0.8 |
